molecular target: T1, Recombinant TNFα containing an N-terminal 13-aa ybbR tag (human, UniProt P01375 77-233, biotin at the ybbR tag in the ELISA assays); assay: FA, FITC-peptide + TNFα titration
T1 construct: Expressed in E. coli; Same construct used unlabelled (FA) and biotinylated on NeutrAvidin (ELISA); also called tumor necrosis factor-alpha; human TNFα; not shown: N-terminal 13-aa ybbR tag
T1 sequence (P01375 77-233): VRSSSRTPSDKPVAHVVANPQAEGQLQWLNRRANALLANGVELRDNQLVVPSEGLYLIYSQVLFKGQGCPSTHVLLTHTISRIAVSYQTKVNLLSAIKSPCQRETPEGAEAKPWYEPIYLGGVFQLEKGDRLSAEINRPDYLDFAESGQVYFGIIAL
Positions of bridges follow the written chain, without caps; N, C: chain ends. Non-standard residues stand in square brackets, D forms with d. Primed or numbered codes have the meaning given here. *: point of attachment. FITC = O=C1OC2(c3ccc(O)cc3Oc3cc(O)ccc32)c2ccc(NC(=S)*)cc21; trimesoyl″ = benzene-1,3,5-tricarbonyl scaffold; Phe(4-Cl) = N[C@@H](Cc1ccc(Cl)cc1)C(=O)O; Nle = CCCC[C@H](N)C(=O)O; Dap = NC[C@H](N)C(=O)O
Reported Kd values for the following binders.
MEASUREMENT KIND: Kd (µM)

In [3]: df
Out[3]:
                                     binder  result_number
0  [Nle]Y[dS]KY[dH]G[dK]H[Dap]K(FITC)-NH2 (linker N-4-10 via trimesoyl″) [C1-30]           0.76
1  [Nle]Y[dS]K[Phe(4-Cl)][dH]G[dK]H[Dap]K(FITC)-NH2 (linker N-4-10 via trimesoyl″) [C1-34]            1.6
2  [Nle][Phe(4-Cl)][dS]KY[dF]G[dK]H[Dap]K(FITC)-NH2 (linker N-4-10 via trimesoyl″) [C1-24]            4.8
